- study-conditions: buffer; pH 7.4; 200.0 µM
Entries annotated with measured solubility kinetic
measurement-type: solubility kinetic

| molecule | result |
| --- | --- |
| NC(=O)c1ccccc1NC(=O)CSC1=NCCS1 | > 44.3 µg/mL |
| CC(=O)c1ccc(NC(=S)NN2C(C)CCCC2C)cc1 (stereo not drawn) | > 45.8 µg/mL |
| CC1(CO)COC(c2ccccc2)=N1 (stereo not drawn) | > 28.7 µg/mL |

* * *

Listing of recorded solubility kinetic by entry.
- study-conditions: buffer; pH 7.4; 200.0 µM

| compound | solubility kinetic |
| --- | --- |
| COc1ccc(-c2nsc(SCC(=O)NCC3CCCO3)n2)cc1 (stereo unspecified) | > 54.8 µg/mL |
| COC(=O)c1ccc(Nc2ccc3nonc3c2[N+](=O)[O-])cc1 | < 0.2 µg/mL |
| Cc1ccc(CNC(=O)C2CCCN(c3cnccn3)C2)cc1 (stereo unspecified) | > 46.6 µg/mL |
| O=C(COC(=O)c1cccnc1Cl)c1ccc(Cl)s1 | > 47.4 µg/mL |
| NC(=O)C1CCN(c2ccc(C(F)(F)F)cn2)CC1 | > 41 µg/mL |
| CC(OC(=O)c1ccco1)C(=O)Nc1ccc(Cl)cn1 (stereo unspecified) | > 44.2 µg/mL |

* * *

Quick list: solubility kinetic per entry.
- study-conditions: buffer; pH 7.4; 200.0 µM

| molecule | solubility kinetic |
| --- | --- |
| CN(c1ccc(O)cc1)S(=O)(=O)c1ccc2ccccc2c1 | > 47 µg/mL |
| CC(=O)CC1(OC(C)=O)C(=O)N(C)c2ccccc21 (stereo not given) | > 39.2 µg/mL |
| CC(=O)ONC(=Nc1ccccc1)c1nonc1N | > 39.2 µg/mL |
| CCOc1ccc(NC(=O)CSc2nncn2C)cc1 | > 43.9 µg/mL |
| Cc1ccc(C)c(NC(=O)CN(C)C(=O)c2cc3ccccc3oc2=O)c1 | > 54.7 µg/mL |

* * *

- study-conditions: buffer; pH 7.4; 200.0 µM
Entries annotated with measured solubility kinetic
measurement-type: solubility kinetic

| compound | result |
| --- | --- |
| CCOc1ccc(N2CC(C(=O)Nc3ccncc3)CC2=O)cc1 (stereo not drawn) | > 48.8 µg/mL |
| COc1ccccc1OCc1csc(N)n1 | > 35.4 µg/mL |
| NC(=NC1CCCCC1)NS(=O)(=O)c1ccccc1 | > 42.2 µg/mL |

* * *

- study-conditions: buffer; pH 7.4; 200.0 µM

| molecule | solubility kinetic |
| --- | --- |
| O=C(O)c1ccc(C(=O)Nc2cccc3ccccc23)c(C(=O)O)c1 | > 0.0503 mg/mL |
| CCN(CC)C(=O)Cn1cc(C(=O)C2CC2)c2ccccc21 | > 0.0448 mg/mL |
| NS(=O)(=O)c1ccc(CCNC(=O)c2ccc3c(c2)OCO3)cc1 | > 0.0523 mg/mL |
| CC(NC(=O)c1ccc(S(=O)(=O)C(F)F)cc1)c1ccccc1 (stereo not given) | > 0.0509 mg/mL |
| COc1ccccc1CNC(=O)COC(=O)c1cc(=O)c2ccccc2o1 | > 0.0551 mg/mL |
| CCNC(=O)CC1C(=O)N(c2ccc(OC)cc2)C(=O)N1CCOC (stereo not given) | > 0.0524 mg/mL |
| CC(C)c1cccc(C(C)C)c1NC(=S)Nc1cccc(Cl)c1 | < 0.0004 mg/mL |
| CCOC(=O)c1cn2nc(Oc3ccccc3)ccc2n1 | > 0.0425 mg/mL |
| O=C(COC(=O)COc1ccc(Cl)cc1Cl)NC1CCS(=O)(=O)C1 (stereo not given) | > 0.0594 mg/mL |
| COc1ccc(NC(=O)COC(=O)C2CC3C=CC2C3)cc1 (stereo not given) | > 0.0452 mg/mL |

* * *

- study-conditions: buffer; pH 7.4; 200.0 µM
measurement-type: solubility kinetic (µg/mL)

| molecule | measurement-type | lt-gt-eq | result |
| --- | --- | --- | --- |
| O=C(O)c1csc(-c2cccs2)n1 | solubility kinetic | > | 31.7 |
| O=C(COC(=O)[C@H](Cc1ccccc1)NC(=O)c1ccco1)Nc1ccccc1 | solubility kinetic | > | 58.9 |
| COc1cc(CC(=O)OCC(=O)NC(C)c2ccccc2)cc(OC)c1OC (configuration not stated) | solubility kinetic | > | 58.1 |
| O=S(=O)(Nc1ccc(-c2cnco2)cc1)c1ccccc1 | solubility kinetic | = | 43.6 |
| COC(c1ccccc1)(c1ccccc1)C(Oc1nccc(C)n1)C(=O)O (configuration not stated) | solubility kinetic | = | 51 |
| O=C(Nc1ccc([N+](=O)[O-])cc1)c1ccccc1 | solubility kinetic | = | 2.2 |
| COc1ccc(N2C(=O)c3ccccc3C(C)(C)C2=O)cc1 | solubility kinetic | = | 5.4 |
| COc1cc(CN2CCc3ccccc3C2)cc([N+](=O)[O-])c1O | solubility kinetic | = | 42.1 |
| S=C(NC1CCCCC1)N1CCn2cccc2C1c1cccnc1 (configuration not stated) | solubility kinetic | > | 51.1 |
| COc1ccc(NC(=O)c2ccccc2Oc2ccccc2)cc1 | solubility kinetic | < | 0.7 |
| CC(C)CCN1CCN(Cc2cccn2-c2cccnc2)CC1CCO (configuration not stated) | solubility kinetic | > | 53.5 |
| CCOc1ccc(S(=O)(=O)/N=C(/c2ccccc2)N(C)C)cc1 | solubility kinetic | > | 49.9 |
| CCN1CCC(NCCc2ccc(F)cc2)CC1 | solubility kinetic | = | 24.9 |
| CCCn1c(=O)c2[nH]cnc2n(-c2ccc(Cl)cc2)c1=O | solubility kinetic | = | 44.9 |
| COCCNC(=O)C(=O)Nc1cc2c3c(c1)CCC(=O)N3CCC2 | solubility kinetic | = | 46.4 |
| O=S(=O)(c1c(Cl)sc(Cl)c1Br)N1CCCC1 | solubility kinetic | = | 4.4 |
| O=C(NCC(c1ccco1)N1CCOCC1)C1CCCCC1 (configuration not stated) | solubility kinetic | > | 46 |

* * *

- study-conditions: buffer; pH 7.4; 200.0 µM
Let's look at some compounds and their measured solubility kinetic.

| compound | lt-gt-eq | solubility kinetic / µg/mL |
| --- | --- | --- |
| O=C(Nc1cccc(O)c1)C1CC(c2c(F)cccc2Cl)=NO1 (centres undefined) | = | 29.5 |
| O=C(c1ccco1)N1CCN(S(=O)(=O)c2cc(Cl)ccc2Cl)CC1 | = | 18.1 |
| COc1ccc(CC(C)Nc2cccc(SC)c2)cc1 (centres undefined) | = | 1.6 |
| CC(C)OCCCNC(=O)COc1ccc2oc3c(c2c1)CCCC3 | = | 48.1 |
| O=C(Nc1ccc(O)cc1C(=O)O)c1cccs1 | > | 39.5 |
| Cc1c(CCOC(=O)c2ccc(Cl)cc2Cl)sc[n+]1CC(=O)c1ccc(Br)cc1.[Br-] | = | 40.6 |
| C=Cn1c(C(=O)O)ccc1-c1ccc(OC)cc1 | > | 36.5 |
| COc1cc(OC)cc(C(=O)NC(=S)N2CCCCCC2)c1 | = | 43.6 |
| COc1ccc(CCC(C)NCc2ccc(F)cc2)cc1 (centres undefined) | = | 31.8 |
| Cc1ccc(NC(=O)COC(=O)C2CC2)cc1S(=O)(=O)N1CCOCC1 | > | 57.4 |
| O=C1CC(C(=O)N2CCN(c3ccccc3)CC2)CN1Cc1ccccc1 (centres undefined) | > | 54.5 |
| CCCCNC(=O)Cn1nc(Cc2ccncc2)c2ccccc2c1=O | > | 52.6 |
| Cc1oc(-c2cc(F)cc(F)c2)nc1CN1CCSCC1 | = | 26.3 |
| COc1ccccc1N1CCN(Cc2ccc(C(=O)O)cc2)CC1 | = | 42.2 |
| CC(=O)c1ccc(NC(=S)NC2CCCC(C)C2C)cc1 (centres undefined) | = | 9.7 |
| CCOc1ccccc1/C=C/c1cc(C(=O)O)c2ccccc2n1 | = | 45.8 |
| Cc1cc(C(=O)Nc2ccc(Br)cn2)sc1C | = | 2.2 |
| Cc1cc(C)nc(N2CCCC(C(=O)NC3CC3)C2)n1 (centres undefined) | > | 41.2 |
| O=C(COC(=O)c1cnccn1)Nc1cccc2ccccc12 | > | 46.1 |
| NC(=O)C1CCN(c2ncccc2[N+](=O)[O-])CC1 | > | 37.5 |
| COc1ccc2c(c1)C(=C(C#N)C#N)C(=O)N2CCc1ccccc1 | = | 3.4 |
| CCCCN(C(=O)c1cnccn1)c1c(N)n(CCC)c(=O)[nH]c1=O | = | 46.9 |
| N#Cc1c(F)cccc1NCc1cccnc1 | = | 33.2 |
| CCC(CC)C(=O)N1CCN(Cc2nc3ccccc3c(=O)[nH]2)CC1 | > | 51.4 |
| N#Cc1ccc(C(=O)NC(=S)NC2CCCCC2)cc1 | = | 21.9 |
| CC(=O)N(Cc1ccccc1)c1ccccc1C(=O)O | > | 40.4 |
| Cc1ccc(C(=O)OCC(=O)NCc2ccc3c(c2)OCO3)cc1S(=O)(=O)N1CCOCC1 | = | 7.2 |
| Cc1nc2cc(Cl)c(Cl)cc2n1CCCO | = | 33.9 |
| COc1ccc(CCNC(=O)c2ccc([N+](=O)[O-])cc2)cc1 | = | 5.3 |
| O=[N+]([O-])c1ccc(COc2ncnc3ccccc23)cc1 | = | 27.7 |
| COC(=O)N1c2ccccc2C=Cc2ccccc21 | > | 37.7 |
| C/C(N)=C(/C#N)C(=O)COC(=O)C1CCN(S(=O)(=O)c2cccs2)CC1 | = | 10.9 |
| Cc1ccc(-c2ccc(S(=O)(=O)NCC3CCCO3)cc2)cc1 (centres undefined) | = | 1.6 |
| Cn1c(Oc2ccc(F)cc2F)c(C=O)c2ccccc21 | = | 16.6 |
| O=C(NCc1ccc(Cl)cc1)Nc1ccc(F)cc1 | = | 1.3 |
| COc1cc(/C=N/O)ccc1Oc1cnccn1 | > | 36.8 |
| Cc1ccccc1OCC(O)CNC1CCCC1.Cl (centres undefined) | = | 38.2 |
| O=C(COC(=O)/C=C/c1ccccc1)NCc1ccc2c(c1)OCO2 | = | 4.8 |
| N#CCCN(Cc1cccs1)C(=O)Nc1ccccc1 | = | 41.1 |
